TARGET OR TEST SYSTEM: T1, canine NGF tagged at the C-terminus with the Flag tag (canine, UniProt A0A8I3PYI3 122-241)
T1 construct: mature; Expressed with baculovirus technology; also called feline NGF (processed form identical)
T1 sequence (A0A8I3PYI3 entry or part of it): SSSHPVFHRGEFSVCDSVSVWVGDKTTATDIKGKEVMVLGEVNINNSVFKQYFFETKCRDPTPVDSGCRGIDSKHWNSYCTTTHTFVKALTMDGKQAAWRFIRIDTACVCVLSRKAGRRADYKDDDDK
TEST SUMMARY: SPR off-rate screen, Fab-SASA on BSA chip

[
  {
    "BINDER": "felinized clone 101 Fab-SASA variant S34A (VL) (Fab, V domains shown, not shown: small tags and cut ends) VH: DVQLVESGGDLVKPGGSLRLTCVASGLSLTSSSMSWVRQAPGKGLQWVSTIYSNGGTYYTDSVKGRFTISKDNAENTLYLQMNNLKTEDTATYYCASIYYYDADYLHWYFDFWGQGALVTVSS VL: EIQMTQSPTSLSASVGDRVTITCRASEGISNNLAWYQQTPGKAPKLLIYATSNLHSGVPSRFSGSGSGTDFTLTISSLQPEDFATYYCQQGYKWPLTFGGGTKLEITR",
    "kon [M⁻¹ s⁻¹]": 450000
  },
  {
    "BINDER": "felinized clone 101 Fab-SASA variant S30Q (VL) (Fab, V domains shown, not shown: small tags and cut ends) VH: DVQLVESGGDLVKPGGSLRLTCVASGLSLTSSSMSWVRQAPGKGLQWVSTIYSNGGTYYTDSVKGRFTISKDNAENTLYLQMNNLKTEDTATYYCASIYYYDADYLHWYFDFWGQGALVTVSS VL: EIQMTQSPTSLSASVGDRVTITCRASEGIQNNLSWYQQTPGKAPKLLIYATSNLHSGVPSRFSGSGSGTDFTLTISSLQPEDFATYYCQQGYKWPLTFGGGTKLEITR",
    "kon [M⁻¹ s⁻¹]": 259000
  },
  {
    "BINDER": "felinized clone 101 Fab-SASA variant S97H (VH) (Fab, V domains shown, not shown: small tags and cut ends) VH: DVQLVESGGDLVKPGGSLRLTCVASGLSLTSSSMSWVRQAPGKGLQWVSTIYSNGGTYYTDSVKGRFTISKDNAENTLYLQMNNLKTEDTATYYCAHIYYYDADYLHWYFDFWGQGALVTVSS VL: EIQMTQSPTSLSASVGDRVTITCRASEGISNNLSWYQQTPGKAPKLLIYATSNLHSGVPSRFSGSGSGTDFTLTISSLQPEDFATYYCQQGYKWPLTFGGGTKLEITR",
    "kon [M⁻¹ s⁻¹]": 297000
  }
]
